Assay: Drug uptake in rat liver at 15 mg/kg, po after 24 hrs
Type: ADME, organism-based
Conditions: read-out: Drug uptake
property-measured: concentration at 24 h (nM)
The response must be a number in nM with no trailing unit.

Quick one: concentration at 24 h of C=C[C@@H]1C[C@]1(NC(=O)[C@@H]1C[C@@](OC)(c2ccc(-c3ccccc3)cc2)CN1C(=O)[C@@H](NC(=O)OC(C)(C)C)C(C)(C)C)C(=O)NS(=O)(=O)C1CC1 ?
1100

====

Experiment: Permeability of the compound at pH 7.4 by PAMPA
Assay type: physicochemical
Conditions: read-out: permeability
property-measured: Papp (×10⁻⁶ cm/s)
The response must be a number in ×10⁻⁶ cm/s with no trailing unit.

[
  {
    "chemical-structure": "C=C[C@@H]1C[C@]1(NC(=O)[C@@H]1C[C@@](O)(c2ccc(-c3ccccc3)cc2)CN1C(=O)[C@@H](NC(=O)OC(C)(C)C)C(C)(C)C)C(=O)NS(=O)(=O)C1CC1",
    "Papp / ×10⁻⁶ cm/s": 21.1
  },
  {
    "chemical-structure": "C=C[C@@H]1C[C@]1(NC(=O)[C@@H]1C[C@@H](Oc2nccc3cc(OC)ccc23)CN1C(=O)[C@@H](NC(=O)OC(C)(C)C)C(C)(C)C)C(=O)NS(=O)(=O)C1CC1",
    "Papp / ×10⁻⁶ cm/s": 17.8
  }
]

Proceed to the following item.
Quick one: Papp of C=C[C@@H]1C[C@]1(NC(=O)[C@@H]1C[C@@](OC)(c2ccc(-c3ccccc3)cc2)CN1C(=O)[C@@H](NC(=O)OC(C)(C)C)C(C)(C)C)C(=O)NS(=O)(=O)C1CC1 ?
43.8

====

Assay: AUC in rat at 15 mg/kg, po after 24 hrs
Type: ADME, organism-based
Design: dose 15 mg/kg, time < 24 hr, route oral
Conditions: in vivo
property-measured: AUC at 24 h (µM·h)
The response must be a number in µM·h with no trailing unit.

Quick one: AUC at 24 h of C=C[C@@H]1C[C@]1(NC(=O)[C@@H]1C[C@@](OC)(c2ccc(-c3ccccc3)cc2)CN1C(=O)[C@@H](NC(=O)OC(C)(C)C)C(C)(C)C)C(=O)NS(=O)(=O)C1CC1 ?
14.1

====

Test system: Heart
Assay: Cardiotoxicity in Langendorff perfused rabbit heart assessed as heart rate at 10 uM perfused for 20 mins (reference value: -3 +/- 3%)
Format: toxicity, tissue-based, Oryctolagus cuniculus
Recorded Activity values for a group of molecules are listed next.
The response must be a number in % with no trailing unit.

Illustrative cases are given below, each with its answer.
[
  {
    "chemical-structure": "C=C[C@@H]1C[C@]1(NC(=O)[C@@H]1C[C@@](O)(c2ccc(-c3ccccc3)cc2)CN1C(=O)[C@@H](NC(=O)OC(C)(C)C)C(C)(C)C)C(=O)NS(=O)(=O)C1CC1",
    "result-value": -4
  },
  {
    "chemical-structure": "C=C[C@@H]1C[C@]1(NC(=O)[C@@H]1C[C@@H](Oc2ncc(OC)c3ccc(Cl)cc23)CN1C(=O)[C@@H](NC(=O)OC(C)(C)C)C(C)(C)C)C(=O)NS(=O)(=O)C1CC1",
    "result-value": -1
  },
  {
    "chemical-structure": "C=C[C@@H]1C[C@]1(NC(=O)[C@@H]1C[C@@](OC)(c2ccc(-c3ccccc3)cc2)CN1C(=O)[C@@H](NC(=O)OC(C)(C)C)C(C)(C)C)C(=O)NS(=O)(=O)C1CC1",
    "result-value": -3
  }
]

Proceed to the following item.
Request: Activity, test system Heart, entry C=C[C@@H]1C[C@]1(NC(=O)[C@@H]1C[C@@H](Oc2nccc3cc(OC)ccc23)CN1C(=O)[C@@H](NC(=O)OC(C)(C)C)C(C)(C)C)C(=O)NS(=O)(=O)C1CC1
-32

====

Tested on: Heart
Experiment: Cardiotoxicity in Langendorff perfused rabbit heart assessed as sinoatrial node recovery time at 10 uM perfused for 20 mins (reference value: 4 +/- 5%)
Format: toxicity, tissue-based, Oryctolagus cuniculus
property-measured: Activity (%)
The response must be a number in % with no trailing unit.

[
  {
    "chemical-structure": "C=C[C@@H]1C[C@]1(NC(=O)[C@@H]1C[C@@](OC)(c2ccc(-c3ccccc3)cc2)CN1C(=O)[C@@H](NC(=O)OC(C)(C)C)C(C)(C)C)C(=O)NS(=O)(=O)C1CC1",
    "target-of-assay": "Heart",
    "unit-symbol": "%",
    "Activity": 7
  },
  {
    "chemical-structure": "C=C[C@@H]1C[C@]1(NC(=O)[C@@H]1C[C@@H](Oc2nccc3cc(OC)ccc23)CN1C(=O)[C@@H](NC(=O)OC(C)(C)C)C(C)(C)C)C(=O)NS(=O)(=O)C1CC1",
    "target-of-assay": "Heart",
    "unit-symbol": "%",
    "Activity": 360
  },
  {
    "chemical-structure": "C=C[C@@H]1C[C@]1(NC(=O)[C@@H]1C[C@@](O)(c2ccc(-c3ccccc3)cc2)CN1C(=O)[C@@H](NC(=O)OC(C)(C)C)C(C)(C)C)C(=O)NS(=O)(=O)C1CC1",
    "target-of-assay": "Heart",
    "unit-symbol": "%",
    "Activity": 7
  }
]

Proceed to the following item.
Quick one: Activity of C=C[C@@H]1C[C@]1(NC(=O)[C@@H]1C[C@@H](Oc2ncc(OC)c3ccc(Cl)cc23)CN1C(=O)[C@@H](NC(=O)OC(C)(C)C)C(C)(C)C)C(=O)NS(=O)(=O)C1CC1 ?
4

====

Test system: Heart
Experiment: Cardiotoxicity in Langendorff perfused rabbit heart assessed as coronary flow at 10 uM perfused for 10 mins (reference value: -4 +/- 6%)
Type: toxicity, tissue-based, Oryctolagus cuniculus
Recorded Activity values for a group of molecules are listed next.
Answer by giving the amount and then stating its unit.

Illustrative cases are given below, each with its answer.
[
  {
    "chemical-structure": "C=C[C@@H]1C[C@]1(NC(=O)[C@@H]1C[C@@](O)(c2ccc(-c3ccccc3)cc2)CN1C(=O)[C@@H](NC(=O)OC(C)(C)C)C(C)(C)C)C(=O)NS(=O)(=O)C1CC1",
    "target-of-assay": "Heart",
    "property-measured": "Activity",
    "result-value": "2%"
  },
  {
    "chemical-structure": "C=C[C@@H]1C[C@]1(NC(=O)[C@@H]1C[C@@](OC)(c2ccc(-c3ccccc3)cc2)CN1C(=O)[C@@H](NC(=O)OC(C)(C)C)C(C)(C)C)C(=O)NS(=O)(=O)C1CC1",
    "target-of-assay": "Heart",
    "property-measured": "Activity",
    "result-value": "27%"
  },
  {
    "chemical-structure": "C=C[C@@H]1C[C@]1(NC(=O)[C@@H]1C[C@@H](Oc2nccc3cc(OC)ccc23)CN1C(=O)[C@@H](NC(=O)OC(C)(C)C)C(C)(C)C)C(=O)NS(=O)(=O)C1CC1",
    "target-of-assay": "Heart",
    "property-measured": "Activity",
    "result-value": "12%"
  }
]

Request: Activity, test system Heart, entry C=C[C@@H]1C[C@]1(NC(=O)[C@@H]1C[C@@H](Oc2ncc(OC)c3ccc(Cl)cc23)CN1C(=O)[C@@H](NC(=O)OC(C)(C)C)C(C)(C)C)C(=O)NS(=O)(=O)C1CC1
-3%

====

Tested on: Heart
Assay: Cardiotoxicity in Langendorff perfused rabbit heart assessed as coronary flow at 10 uM perfused for 20 mins (reference value: -6 +/- 8%)
Type: toxicity, tissue-based, Oryctolagus cuniculus
property-measured: Activity (%)
The response must be a number in % with no trailing unit.

[
  {
    "chemical-structure": "C=C[C@@H]1C[C@]1(NC(=O)[C@@H]1C[C@@H](Oc2nccc3cc(OC)ccc23)CN1C(=O)[C@@H](NC(=O)OC(C)(C)C)C(C)(C)C)C(=O)NS(=O)(=O)C1CC1",
    "unit-symbol": "%",
    "result-value": 10
  }
]

Quick one: Activity of C=C[C@@H]1C[C@]1(NC(=O)[C@@H]1C[C@@](OC)(c2ccc(-c3ccccc3)cc2)CN1C(=O)[C@@H](NC(=O)OC(C)(C)C)C(C)(C)C)C(=O)NS(=O)(=O)C1CC1 ?
20

Quick one: Activity of C=C[C@@H]1C[C@]1(NC(=O)[C@@H]1C[C@@](O)(c2ccc(-c3ccccc3)cc2)CN1C(=O)[C@@H](NC(=O)OC(C)(C)C)C(C)(C)C)C(=O)NS(=O)(=O)C1CC1 ?
-2

Quick one: Activity of C=C[C@@H]1C[C@]1(NC(=O)[C@@H]1C[C@@H](Oc2ncc(OC)c3ccc(Cl)cc23)CN1C(=O)[C@@H](NC(=O)OC(C)(C)C)C(C)(C)C)C(=O)NS(=O)(=O)C1CC1 ?
-1

Every entry's value here was drawn from ChEMBL document CHEMBL4000200.
